Item-by-item account of FACS signal
Target: T1, human CLDN6, endogenously expressed on cancer cell lines (human, UniProt P56747 1-220)
T1 construct: also called Endogenous CLDN6+; CLDN6 on ARK2, OVCA429, UMUC4 cells
T1 sequence: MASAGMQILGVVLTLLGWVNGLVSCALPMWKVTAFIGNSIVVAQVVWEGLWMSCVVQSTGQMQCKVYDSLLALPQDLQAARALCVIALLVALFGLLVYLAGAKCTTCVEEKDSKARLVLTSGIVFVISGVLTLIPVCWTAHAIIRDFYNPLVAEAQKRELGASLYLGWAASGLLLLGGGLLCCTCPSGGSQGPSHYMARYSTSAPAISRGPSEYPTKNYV
Assay: FACS, ARK2 cells, 1.5 ug Ab
measurement_kind: FACS signal

* AB4-chim (antibody, V domains shown, Parental antibody prior to humanization ('chim'); also called pre-humanized form of AB4) VH: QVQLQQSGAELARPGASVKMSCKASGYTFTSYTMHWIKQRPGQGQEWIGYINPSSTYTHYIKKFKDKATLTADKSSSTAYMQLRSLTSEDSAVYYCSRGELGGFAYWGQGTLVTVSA VL: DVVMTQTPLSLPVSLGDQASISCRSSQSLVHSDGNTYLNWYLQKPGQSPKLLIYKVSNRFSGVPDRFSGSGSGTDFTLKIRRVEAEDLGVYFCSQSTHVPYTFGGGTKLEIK | 38400
* AB3-3 (antibody, V domains shown, Humanized; also called humanized AB 3-3) VH: EVQLLESGGGLVQPGGSMRLSCAASGFTFSNYWMNWVRQAPGKGLEWVAQIRLKSDNYATHYADSVKGRFTISRDDSKNTVYLQMNSLRAEDTGVYYCNDGPPSGCWGQGTLLTVSS VL: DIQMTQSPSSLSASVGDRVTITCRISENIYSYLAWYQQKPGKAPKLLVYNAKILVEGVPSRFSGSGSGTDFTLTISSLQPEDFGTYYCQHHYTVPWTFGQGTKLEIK | 54900
* AB18-chim (antibody, V domains shown, Parental antibody prior to humanization ('chim'); also called pre-humanized form of AB18) VH: QVQLKQSGPELEKPGASVKISCKASGYSFTGYNMNWVKQSNGKSLEWIGNIDPYYGGSTYNQKFTGKATLTVDKSSSTAYMQLKSLTSEDSAVYYCARERSGYVFSAMDYWGQGTSVTVSS VL: NIMMTQSPSSLAVSAGEKVTMSCKSSQSVLFSSNQKNYLAWYQQKPGQSPRLLIYWASTRESGVPDRFTGSGSGTDFTLTISNVQAEDLAVYYCHQYLSSRTFGAGTKLELK | 9150
